Taken from ChEMBL document CHEMBL1132107.

Test: Solubility is determined at pH 4.0
Assay type: physicochemical
Settings: buffer
Measurement name: solubility (µg/mL)
Numeric only. Scale: µg/mL

Short answer for CC[C@@]1(O)C(=O)OCc2c1cc1n(c2=O)Cc2cc3c(NC(=O)OCc4ccc(O[C@@H]5O[C@H](C(=O)O)[C@@H](O)[C@H](O)[C@H]5O)cc4)cccc3nc2-1 : solubility was 500

Recorded result, CC[C@@]1(O)C(=O)OCc2c1cc1n(c2=O)Cc2cc3c(N)cccc3nc2-1 , solubility: 6

Proceed to the following item.
solubility in this record for CC[C@@]1(O)C(=O)OCc2c1cc1n(c2=O)Cc2cc3c(NC(=O)OCc4ccc(O[C@@H]5O[C@H](C(=O)[O-])[C@@H](O)[C@H](O)[C@H]5O)cc4)cccc3nc2-1.[K+] : 25000
